# Test system: KM12 colon
# assay protocol: NCI tumour cell line growth inhibition, 48 h
Measured TGI of individual entries

# molecule, unit annotation, qualifier, TGI
measured = [
    ("Nc1nc(-c2ccc(Cl)cc2)cc(-c2ccccc2)c1-c1nc2ccccc2o1", "µM", "=", 8.17),
    ("Cc1ccc(SSCCCCCS(=O)O)cc1", "µM", ">", 100),
    ("CN(C)Cc1cc(/C=C/C(=O)c2ccc(Cl)c(Cl)c2)cc(CN(C)C)c1O", "µM", "=", 26.3),
    ("Cn1c(=O)c2[nH]c(CCCCc3nc4c([nH]3)c(=O)n(C)c(=S)n4C)nc2n(C)c1=S", "µM", ">", 100),
    ("O=C(NCCCCCCNC(=O)OCc1ccc2c(Cl)cc(Cl)c(O)c2n1)OCc1ccc2c(Cl)cc(Cl)c(O)c2n1", "µM", "=", 2.95),
    ("c1ccc2c3c(ccc2c1)-c1c(ccc2c(NCCCCN4CCCCC4)cccc12)C3", "µM", "=", 3),
    ("CCOC(=O)c1ccc(Nc2nc3cc(C(F)(F)F)ccc3nc2C(=O)OCC)cc1", "µM", ">", 100),
    ("O=c1/c(=C/c2ccc([N+](=O)[O-])o2)sc2n1[C@@H](c1ccc3c(c1)OCO3)C=C(c1cc(F)c(Cl)cc1Cl)N=2", "µM", "=", 38.4),
    ("COc1cccc(Nc2nc(N)nc(N)c2N=O)c1", "µM", ">", 100),
    ("CC1=Nc2ccccc2C12C(c1ccccc1)C(c1ccccc1)C(=O)N1c3ccccc3CC12 (stereo not given)", "µM", ">", 100),
]
